TESTED_SYSTEM: recombinant human S1P1 receptor (Homo sapiens, UniProt P21453)
Sequence (P21453 whole entry): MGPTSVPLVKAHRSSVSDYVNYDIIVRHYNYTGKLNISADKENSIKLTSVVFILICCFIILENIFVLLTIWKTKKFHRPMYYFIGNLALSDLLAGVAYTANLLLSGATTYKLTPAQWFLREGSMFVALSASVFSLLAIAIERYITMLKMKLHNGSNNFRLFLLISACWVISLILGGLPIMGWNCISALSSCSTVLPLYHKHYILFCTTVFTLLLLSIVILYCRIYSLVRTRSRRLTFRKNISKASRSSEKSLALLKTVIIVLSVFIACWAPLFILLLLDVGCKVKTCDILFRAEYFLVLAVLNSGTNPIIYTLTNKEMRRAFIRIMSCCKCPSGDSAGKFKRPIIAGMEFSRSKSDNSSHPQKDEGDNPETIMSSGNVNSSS
ASSAY_PROTOCOL: GTPγS assay to determine EC50 values
Assay type: biochemical
CONDITION: agonistic activity; 35S-GTPγS binding, membrane preparations of CHO cells expressing recombinant human S1P1 receptor
The following compounds are listed with their measured EC50 values.
Express your answer in nM, writing the number without its unit.

Worked examples follow.
Query string: So what's the measured EC50 for this one? CCc1cc(-c2noc(-c3cc(C)nc(N(C)CC(C)C)c3)n2)cc(C)c1OC[C@@H](O)CNC(=O)CO [Example 232]
Result string: 4.1

Query string: Now the same for CCN(CC)c1cc(-c2nc(-c3cc(C)c(OC[C@@H](O)CNC(=O)CO)c(Cl)c3)no2)cc(C)n1 [Example 109]
Result string: 0.5

Query string: Now the same for CCc1cc(-c2nc(-c3cc(C)c(OC[C@@H](O)CNC(=O)CO)c(CC)c3)no2)cc(N(C)C)n1 [Example 192]
Result string: 0.2

Query string: Now the same for CCc1cc(-c2nc(-c3cc(C)nc(N(CC)CC)c3)no2)cc(C)c1OC[C@H](O)CNC(=O)CO [Example 79]
Result string: 1.4

Query string: Now the same for CCc1cc(-c2nnc(-c3cc(C)nc(N(CC)CC)c3)o2)cc(C)c1OC[C@@H](O)CNC(=O)CO [Example 87]
Result string: 3.4

New cases:
Query string: So what's the measured EC50 for this one? CCc1cc(-c2noc(-c3cc(C)nc(N(C)C(C)C)c3)n2)cc(C)c1CCC(=O)NCCC(=O)O [Example 26]
Result string: 2.6

Query string: Now the same for CCc1cc(-c2noc(-c3cc(C)nc(N(CC)CC)c3)n2)cc(C)c1OCC(O)CO (racemic) [Example 15]
Result string: 1.2

---

TESTED_SYSTEM: recombinant human S1P1 receptor (Homo sapiens)
ASSAY_PROTOCOL: GTPγS assay to determine EC50 values
Type: biochemical
CONDITION: agonistic activity; 35S-GTPγS binding, membrane preparations of CHO cells expressing recombinant human S1P1 receptor
QUANTITY_KIND: EC50 (nM)
Express your answer in nM, writing the number without its unit.

Worked examples follow.
Query string: So what's the measured EC50 for this one? CCc1cc(-c2noc(-c3cc(C)nc(N(C)C(C)C)c3)n2)cc(C)c1OC[C@@H](O)CNC(=O)CO
Result string: 0.1

Query string: Now the same for COc1cc(OC[C@H](O)CNC(=O)CO)ccc1-c1noc(-c2cc(C)nc(N(C)C(C)C)c2)n1
Result string: 5.1

Query string: Now the same for CCc1cc(-c2noc(-c3cc(C)nc(NC(C)C)c3)n2)cc(C)c1OC[C@@H](O)CNC(=O)CO
Result string: 0.5

Alright, here's another compound for you.
Query string: So what's the measured EC50 for this one? CCc1cc(-c2noc(-c3cc(C)nc(N(CC)CC)c3)n2)cc(C)c1OCCN1CCC(C(=O)O)C1 (racemic)
Result string: 6.2

---

TESTED_SYSTEM: recombinant human S1P1 receptor (Homo sapiens)
ASSAY_PROTOCOL: GTPγS assay to determine EC50 values
Type: biochemical
CONDITION: agonistic activity; 35S-GTPγS binding, membrane preparations of CHO cells expressing recombinant human S1P1 receptor
QUANTITY_KIND: EC50 (nM)
Express your answer in nM, writing the number without its unit.

Worked examples follow.
Query string: So what's the measured EC50 for this one? CCCc1cc(-c2noc(-c3cc(C)nc(N(C)C(C)C)c3)n2)cc(C)c1OC[C@@H](O)CNC(=O)CO [Example 139]
Result string: 2

Query string: Now the same for CCc1cc(-c2noc(-c3cc(C)nc(NC(C)C)c3)n2)cc(C)c1OC[C@H](O)CO [Example 198]
Result string: 2.4

Alright, here's another compound for you.
Query string: So what's the measured EC50 for this one? Cc1cc(-c2nc(-c3cc(C)c(OC[C@@H](O)CNC(=O)CO)c(Cl)c3)no2)cc(N(C)C(C)C)n1 [Example 146]
Result string: 0.8
